Measured values drawn from the supplement of paper PMC6757056 for this set.

B1: library; a variant is named by its letters at N, in order (parent)
chain: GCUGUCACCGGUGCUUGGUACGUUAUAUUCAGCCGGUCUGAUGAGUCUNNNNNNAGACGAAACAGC

- Variants of: B1
- testDescription: normalized RNA/DNA level without ligand (relative to sTRSVctl = 100) (log10 (% of sTRSVctl)); HEK293T overexpressing SLC46A1; higher = less ribozyme self-cleavage, higher mRNA level
- conditionDescription: without (6R,S)-folinic acid; ligand present: no
Entries and their normalized RNA/DNA level without ligand (log10) values follow.
Please respond with just the number, no unit label.

Look over these answered cases.
UGUAAC
1.95
UGAACU
1.99
ACUAUA
1.98
AAGUAU
1.96
GACCUC
2.06

Task: Specify normalized RNA/DNA level without ligand (log10) for "ACUCCA" and stop.
Result: 2.06

Task: Specify normalized RNA/DNA level without ligand (log10) for "CCUAGA" and stop.
Result: 2.05

Task: Specify normalized RNA/DNA level without ligand (log10) for "AGGACC" and stop.
Result: 2.03

Task: Specify normalized RNA/DNA level without ligand (log10) for "CUGGGA" and stop.
Result: 2.01

Task: Specify normalized RNA/DNA level without ligand (log10) for "UCCCUA" and stop.
Result: 2.01

Task: Specify normalized RNA/DNA level without ligand (log10) for "GAUGAG" and stop.
Result: 1.86
